Tested on: UACC-257 melanoma
Test: NCI tumour cell line growth inhibition, 48 h

{"columns": ["compound", "TGI"],
 "data": [
  ["CCOC(=O)c1cc(C2(O)CCN(Cc3ccccc3)C2=O)c(-c2cc(C)no2)[nH]1 (stereo unspecified)", "> 100 µM"],
  ["COc1cc(-n2cc(-c3ccc(Cl)c(Cl)c3)nc2SCc2ccccc2)cc(OC)c1OC", "> 100 µM"],
  ["Cc1cc(-c2nc3ccccc3s2)ccc1NS(=O)(=O)O", "> 100 µM"],
  ["CC[C@@H]1CC[C@@H]2[C@H](CC[C@]3(C)[C@@H](O)CC[C@@H]23)[C@H]1C(=O)O", "> 100 µM"],
  ["O=C(Nc1nc2ccccc2s1)OCC(F)(F)F", "> 100 µM"],
  ["Nc1n[nH]c(=O)[nH]1", "> 100 µM"],
  ["NC(CO)Cc1cnc[nH]1 (stereo unspecified)", "> 100 µM"],
  ["CCn1c(-c2nonc2N)nc2c(C#CCN)ncc(OCCCN)c21", "> 25 µM"],
  ["Cc1ccccc1C1OC1C(=O)c1ccccc1N (stereo unspecified)", "> 100 µM"],
  ["Nc1ccccc1Nc1ccccc1C(=O)[O-].Nc1ccccc1Nc1ccccc1C(=O)[O-].[Cu+2]", "> 100 µM"],
  ["O=C1NC(c2ccc(O)cc2)C2CCC1C2 (stereo unspecified)", "> 100 µM"],
  ["Cc1ccc2c(c1)nc(N)n[n+]2[O-]", "> 100 µM"],
  ["Cc1c(Cl)cccc1NC(=O)C(=O)C1C(=O)CC(C)(C)CC1=O", "> 100 µM"],
  ["CNC(=O)c1ccccc1CC1(O)c2ccccc2Oc2ccccc21", "> 100 µM"],
  ["C[C@]12OC[C@H](c3ccccc3)N1C(=O)C1[C@H]2CC12SCCS2 (stereo partly specified)", "> 100 µM"],
  ["Cc1cn(C2CC(N)C(CN)O2)c(=O)[nH]c1=O (stereo unspecified)", "> 100 µM"],
  ["Cc1ccc(S(=O)(=O)N2CCN3C(=O)c4ccccc4C32c2ccc(F)cc2)cc1 (stereo unspecified)", "> 100 µM"],
  ["CC(=O)C(CN1CCCCC1)C(c1ccccc1)c1c(O)c2ccccc2oc1=O (stereo unspecified)", "> 100 µM"],
  ["OCC1CCCC(n2cnc3c(=S)nc[nH]c32)O1 (stereo unspecified)", "> 100 µM"],
  ["CCCN=C1CC(C)Nc2ccccc2N1 (stereo unspecified)", "> 100 µM"],
  ["CC(C)CC(N)C(=O)OCN1C(=O)C2C3C=CC(C2C1=O)C1C2C(=O)N(COC(=O)C(N)CC(C)C)C(=O)C2C31 (stereo unspecified)", "> 100 µM"]
]}

---

System: LOX IMVI melanoma
Experiment: NCI tumour cell line growth inhibition, 48 h
Reported TGI values are given for each entry in this list.
metric: TGI

{"columns": ["molecule", "result"],
 "data": [
  ["COc1cc(C(=O)NC2c3ccccc3-c3ccccc32)c(N)cc1OCc1ccccc1", "> 100 µM"],
  ["O=c1c2ccccc2[nH]c(=S)n1-c1ccc(N=Nc2cccc3c(O)cccc23)cc1", "> 100 µM"],
  ["Nc1n[nH]c(=O)[nH]1", "> 100 µM"]
]}

---

Reported TGI values are given for each entry in this list.
Tested on: HS 578T breast
Experiment: NCI tumour cell line growth inhibition, 48 h

{"columns": ["molecule", "TGI"],
 "data": [
  ["CC[C@@H]1CC[C@@H]2[C@H](CC[C@]3(C)[C@@H](O)CC[C@@H]23)[C@H]1C(=O)O", "> 100 µM"],
  ["CCOC(=O)c1sc2nc(SC)nc3c2c1N=CN3c1ccc(Br)cc1", "> 100 µM"],
  ["Cc1c(/C=N\\NC(=S)N2CCN(C(=S)N/N=C\\c3c(C)n(C)n(-c4ccccc4)c3=O)CC2)c(=O)n(-c2ccccc2)n1C", "> 100 µM"]
]}

---

System: SF-268 CNS
Test: NCI tumour cell line growth inhibition, 48 h
Reported TGI values are given for each entry in this list.

{"columns": ["compound", "target-entity", "measurement-qualifier", "TGI, µM"],
 "data": [
  ["Cc1cc(=O)cc2sc3c(C)cccc3nc1-2", "SF-268 CNS", "=", 26.3],
  ["O=C(/C(=C(/Br)I)c1ccccc1)c1ccccc1", "SF-268 CNS", "=", 48.5],
  ["O=C(NNc1nc2c(F)cccc2n2cccc12)c1cnccn1", "SF-268 CNS", ">", 67.7],
  ["CN1CCN(Cc2ccc(C(=O)Nc3cncc(C#Cc4cnc(N)c5ccccc45)c3)cc2C(F)(F)F)CC1", "SF-268 CNS", "=", 17.2],
  ["Cc1cc(-c2nc3ccccc3s2)ccc1NS(=O)(=O)O", "SF-268 CNS", ">", 100],
  ["O=C1CC(O)c2c1csc2Br (stereo not given)", "SF-268 CNS", "=", 88.6],
  ["COc1ccc2nc(-c3ccc(OCc4ccccc4)cc3)ccc2c1", "SF-268 CNS", ">", 100],
  ["C[C@]12OC[C@H](c3ccccc3)N1C(=O)C1[C@H]2CC12SCCS2 (stereo not given in full)", "SF-268 CNS", ">", 100],
  ["CC1(C)CC2(C)CC1CC2O (stereo not given)", "SF-268 CNS", ">", 100],
  ["C=C1C(=O)O[C@H]2[C@H]1CC/C(CNC(=O)c1c[nH]c3ccc(F)cc13)=C\\CC[C@@]1(C)O[C@@H]21", "SF-268 CNS", "=", 4.45],
  ["CCOC(=O)CC1=Nc2ccccc2SC1", "SF-268 CNS", "=", 1.56],
  ["Cc1cc2nc3c4cc(Cl)ccc4n(CCN(C)C)c3nc2cc1C", "SF-268 CNS", "=", 5.29],
  ["COc1cc2c3c(cccc3c1)C(=O)N(CCN1CCCC1)C2=O", "SF-268 CNS", "=", 9.06],
  ["CCN1CCN(c2nc(NCCCNc3ccnc4cc(Cl)ccc34)c3ccccc3n2)CC1", "SF-268 CNS", "=", 10.7],
  ["COc1ccc(Nc2[nH]c(C(C)=O)c(N)c2C(=S)Nc2ccccc2)cc1", "SF-268 CNS", ">", 100],
  ["O=c1[nH]c2ccccc2cc1C(Cl)=C(Cl)Cl", "SF-268 CNS", ">", 100],
  ["CCOC(=O)C1=C(C)Nc2ccccc2S1", "SF-268 CNS", ">", 100],
  ["COC(=O)C1OC(O[C@H]2CCC3(C)C(CCC4(C)C3CC=C3C5CC(C)(C)CCC5(C(=O)O)CC[C@]34C)C2(C)C)C(O)C(OC2OC(CO)C(O)C(O)C2O)C1O (stereo not given in full)", "SF-268 CNS", "=", 17.1],
  ["N#CC1=C(N)OC2=C(CSc3ccccc32)C1c1ccc(Br)cc1 (stereo not given)", "SF-268 CNS", "=", 25.6],
  ["O=C(CSc1nc2ccc([N+](=O)[O-])cc2[nH]1)Nc1ccc(F)c(Cl)c1", "SF-268 CNS", "=", 13.2],
  ["C#CCNC(=O)NC(CCCNC(=O)OCc1ccccc1)C(=O)OCc1ccccc1 (stereo not given)", "SF-268 CNS", ">", 100],
  ["Cc1cc2c(c(C(=O)NCCC(=O)O)c1)Oc1c(cc(C)cc1C(=O)NCCC(=O)O)S2", "SF-268 CNS", ">", 100],
  ["CCc1c2c(nc3cc4c(cc13)OCO4)-c1cc3c(c(=O)n1C2)COC(=O)[C@]3(O)CC", "SF-268 CNS", "=", 0.622],
  ["FC(F)(F)c1nc(-c2ccccc2Cl)[nH]c1C(F)(F)F", "SF-268 CNS", ">", 29.5],
  ["COc1ccc(/C(=C/n2ccnc2)C(=O)c2ccc(OC)c(OC)c2)cc1", "SF-268 CNS", ">", 100],
  ["Cc1ccc2c(C(C[N+](=O)[O-])c3cccs3)c(-c3ccccc3)[nH]c2c1 (stereo not given)", "SF-268 CNS", "=", 11.5],
  ["C=CC(=O)c1ccc2c(c1)OCCOCCOCCOCCOCCO2", "SF-268 CNS", ">", 92.8],
  ["O=c1[nH]cnc2c(C3OC(CO)C(O)C3O)c[nH]c12 (stereo not given)", "SF-268 CNS", ">", 100],
  ["CC(C)(C)OC(=O)n1cc(CNC(=S)Nc2ccccc2)c2ccccc21", "SF-268 CNS", "=", 33.1],
  ["Cc1ccc2c(c1C)CC1(Cc3c(ccc4c3CCC4)C1=O)C2=O (stereo not given)", "SF-268 CNS", ">", 100],
  ["COc1ccc(-c2nn(-c3cccc(Cl)c3)cc2C2CC(c3ccccc3)=NN2C(C)=O)cc1 (stereo not given)", "SF-268 CNS", "=", 14.2],
  ["CCCCCCCCCCCCCC(=S)NCCCC[C@H](NC(=O)OCc1ccccc1)C(=O)Nc1ccccc1", "SF-268 CNS", ">", 100],
  ["Cc1sc2nc3n(c(=O)c2c1C)N=CN(c1ccccc1)C3", "SF-268 CNS", ">", 100],
  ["CCOC(=O)C1(CC)CCCCC(=O)N1 (stereo not given)", "SF-268 CNS", ">", 100],
  ["COc1cc(COC(=O)N[C@H](C(=O)O)C(C)(C)C)c([N+](=O)[O-])cc1OC", "SF-268 CNS", ">", 100],
  ["O=C1NC2(CCCC2)C(=O)C12CCCC2", "SF-268 CNS", ">", 100],
  ["COc1cc(/C=C\\[N+](=O)[O-])ccc1O", "SF-268 CNS", "=", 12.8],
  ["NC(N)=N/N=C(/c1ccccc1)c1ccc(F)cc1", "SF-268 CNS", "=", 14.4],
  ["O=C1CC(=O)N(c2ccccc2)N1/C(=C/c1ccccc1)c1ccccc1", "SF-268 CNS", "=", 36.3],
  ["COc1ccc(-c2c(C#N)c(N)n(C3OC(CO)C(O)C(O)C3O)c(=S)c2C#N)cc1 (stereo not given)", "SF-268 CNS", ">", 100]
]}
